Would you mind telling me the reported TGI of each entry?
System: SW-620 colon
test_details: NCI tumour cell line growth inhibition, 48 h

>  <compound>
CC(CO)CCNc1ncnc2c1ncn2CCC(=O)OC(C)(C)C (stereo not drawn)

>  <system_name>
SW-620 colon

>  <TGI>
> 100 µM

$$$$

Return reported TGI values for all items listed beneath this line.
1. CCN(Cc1ccccc1C)c1ccc(CO)c(Cl)c1
2. COc1ccc2c(c1)nc1n2C(c2c(Cl)cccc2Cl)SC1 (stereo not drawn)
3. COc1ccc(C2OC(N)=C(C#N)C3=C2CCCC3C)cc1OC (stereo not drawn)
4. Cc1cc(C)nc(NS(=O)(=O)c2ccc(NC(=O)c3cccc4c(Nc5ccc(S(N)(=O)=O)cc5)c5ccccc5nc34)cc2)n1

Result:
["18.5 µM", "> 53.8 µM", "> 100 µM", "> 100 µM"]

Answer for every listed entry: what is its TGI? The entries follow.
1. O=C1NC(=O)C(c2c[nH]c3ccccc23)=C1c1cn(C(c2ccccc2)(c2ccccc2)c2ccccc2)cn1
2. CCCCCC(=O)CCCCCCCC(O)CC(=O)OCC (stereo not drawn)
3. N#Cc1[nH]c(=S)[nH]c1N
4. Cc1nc2ccc(NC(=S)Nc3ccccc3)cc2c(=O)n1-c1ccccc1

Result:
1. 30 µM
2. > 100 µM
3. > 100 µM
4. > 100 µM

// for each compound below, give its TGI
1. CCCCCCCCCCCCC/C=C/[C@@H](O)[C@H](COC1OC(CO)C(OC2OC(CO)C(O)C(OC3(C(=O)O)CC(O)C(NC(C)=O)C(C(O)C(O)CO)O3)C2O)C(O)C1O)N=[N+]=[N-] (stereo partly drawn)
2. Nc1nc(Cl)c(N)c(NCC2(CO)CCCC2)n1
3. CN1CCc2c(sc3ncn(C)c(=N)c23)C1
4. Cn1c(=O)oc2cc(C(O)CN3CCN(Cc4ccccn4)CC3)c(Cl)cc21 (stereo not drawn)
5. COc1cc(C(C)=O)cc(C(=O)N(C(C)C)C(C)C)c1[Si](C)(C)C
6. COc1ccc2c(c1)C(=O)OCCC2

Result:
["61.7 µM", "> 100 µM", "> 100 µM", "> 100 µM", "> 100 µM", "> 100 µM"]

====

Tested on: NCI-H23 lung
test_details: NCI tumour cell line growth inhibition, 48 h
Please respond with reported TGI for every item in the list.
Answers are plain numbers, in µM.

For orientation, consider the following solved cases.
>  <given_smiles>
CC(=O)O/C(=C1\C[C@H]2[C@@H]3CC=C4C[C@@H](OC(C)=O)CC[C@]4(C)[C@H]3CC[C@]2(C)C1=O)C(F)(F)F

>  <measured_parameter>
TGI

>  <endpoint_unit>
µM

>  <endpoint_value>
18.3

$$$$
>  <given_smiles>
Ic1cccc(/C=C/CN2CCN(CCOC(c3ccccc3)c3ccccc3)CC2)c1

>  <measured_parameter>
TGI

>  <endpoint_unit>
µM

>  <endpoint_value>
40

$$$$

Field: next compound
Query: I am curious: what TGI value has been reported for `COc1ccc(-n2c(C)cc(-c3ccccc3)c2C)cc1` ?
Result: 16.2

====

Tested on: MALME-3M melanoma
test_details: NCI tumour cell line growth inhibition, 48 h
measured_parameter: TGI

List TGI for every entry below, keeping the order given.
1. CCOC(=O)CO/N=C1/C(c2c(O)[nH]c3ccccc23)=Nc2ccccc21
2. Cc1nc2sc3c(c2c(=O)[nH]1)CCCC3
3. Nc1nc(Cl)c(N)c(NCC2(CO)CCCC2)n1
4. CCCO/S(=N\S(=O)(=O)c1ccccc1)c1ccccc1[N+](=O)[O-] (centres undefined)

Result:
["> 100 µM", "> 100 µM", "> 100 µM", "> 100 µM"]

Please give TGI for each item listed below.
1. CC(=O)N(CCc1ccccc1)C(C#N)c1ccccc1 (centres undefined)
2. Cc1nn(C(=O)c2ccc(Cl)cc2)c2c1C(/C=C/c1ccccc1)SC(N)=N2 (centres undefined)

Result:
1: > 100 µM; 2: > 10 µM

Answer for every listed entry: what is its TGI? The entries follow.
1. C/C(CC(=O)Nc1cccc(Cl)c1C)=N\NC(=O)c1ccncc1
2. CCOC(=O)/C=C(/C)Sc1cc(O)c2ccccc2c1O
3. COCC1(CO)C(=O)C2CCN1CC2 (centres undefined)
4. C#CC(C)(C)OC(=O)C(=[N+]=[N-])C(C)=O
5. COc1cc(N(CCC#N)CCC#N)ccc1/C(N=Nc1ccccc1C)=N\NC(=O)c1ccc(C)cc1
6. Cc1nc([N+](=O)[O-])cn1CC(=N)N
7. CN(C)c1ccc(/C=N\NC(=O)Nc2cccc3ccccc23)cc1
8. CCCCSC1=N/C(=C\c2ccco2)C(Cl)=N1

Result:
["> 100 µM", "3.71 µM", "28.3 µM", "> 10 µM", "> 100 µM", "> 100 µM", "27.4 µM", "> 100 µM"]
